assayedSystem: human α-thrombin (recombinant) (human, UniProt P00734 328-363; P00734 364-622)
assayDetails: cell-based or functional assay
Square brackets hold non-standard residues; d marks the D form. Ends that are not written are not given here. β3hR = N=C(N)NCCC[C@H](N)CC(=O)O
I'd appreciate it if you marked entries 1.0 when IC50, inhibition of thrombin amidolytic activity (S2238) is lower than 10 nM and 0.0 when it is not.

Does the reported IC50, inhibition of thrombin amidolytic activity (S2238) of SGGHQTAVP[β3hR]ISKQGLGGDFEEIPSDEIIE [β-avathrin] stay below 10 nM? 0.0

Please check: IC50, inhibition of thrombin amidolytic activity (S2238) for QTAVPKISKQGLGGDFEEIPSDEIIE (Avathrin without its four N-terminal residues) [QT26] , strictly under 10 nM or not? 1.0

I'd appreciate it if you could check whether SGGHQTAVPKIAKQGLGGDFEEIPSDEIIE [avathrin S12A] has IC50, inhibition of thrombin amidolytic activity (S2238) smaller than 10 nM. 0.0

Strictly below 10 nM in IC50, inhibition of thrombin amidolytic activity (S2238)? SGGHQTAVPKISKQGLGGDFEEIPSDEIIE (Synthetic 30-residue peptide; one repeat of precursor protein BAD29729) [avathrin (Amblyomma variegatum thrombin inhibitor)] 1.0

Consider ISKQGLGGDFEEIPSDEIIE (Avathrin residues 11-30; also called C-terminal cleavage product of avathrin) [IS20] . Does its IC50, inhibition of thrombin amidolytic activity (S2238) lie strictly below 10 nM? 0.0

IC50, inhibition of thrombin amidolytic activity (S2238) under 10 nM? Item: SGGHQTAVPKIHKQGLGGDFEEIPSDEIIE (also called 512H) [avathrin S12H] 0.0

Dear colleague, could you confirm whether IC50, inhibition of thrombin amidolytic activity (S2238) of SDGHDTAVPKISKQGLGGDFEEIPSDEIIE [avathrin G2D, Q5D] falls below 10 nM? Thanks. 0.0

Threshold test, IC50, inhibition of thrombin amidolytic activity (S2238) < 10 nM: SGGHQTAVPRISKQGLGGDFEEIPSDEIIE (also called K10R-avathrin) [avathrin K10R] 1.0

Would you kindly verify if IC50, inhibition of thrombin amidolytic activity (S2238) of SGGHQTAVPKISKQGPPGDFEEIPSDEIIE [avathrin L16P, G17P] is strictly less than 10 nM? 0.0
